- Conditions Used: in n-butyl acetate, 288.15 K
Reported Metric: solubility (mole fraction)
Note: the reply should be a number with no unit written.

Enquiry: # solubility (mole fraction) lookup, item O=C(O)CCC(=O)C(=O)O
Return: 0.0391

====

- Conditions Used: in water, 280.15 K
Reported Metric: solubility (mole fraction)
Form: value (number only, do not type unit).

Enquiry: Find the recorded solubility (mole fraction) belonging to O=C(O)CCC(=O)C(=O)O and report it.
Return: 0.114

====

- Conditions Used: in water, 284.15 K
Reported Metric: solubility (mole fraction)

Enquiry: Dear colleague, I am looking for the recorded solubility (mole fraction) of the following molecule: O=C(O)CCC(=O)C(=O)O
Return: 0.128

====

- Conditions Used: in ethyl acetate, 288.15 K
Reported Metric: solubility (mole fraction)

Enquiry: # input molecule: O=C(O)CCC(=O)C(=O)O ; wanted: its solubility (mole fraction)
Return: 0.0494

====

- Conditions Used: in water, 282.15 K
Reported Metric: solubility (mole fraction)

Enquiry: Look up solubility (mole fraction): O=C(O)CCC(=O)C(=O)O
Return: 0.12

====

- Conditions Used: in water, 286.15 K
Reported Metric: solubility (mole fraction)
I only need the number, thanks.

Enquiry: Requested read-out: solubility (mole fraction). Entry: O=C(O)CCC(=O)C(=O)O
Return: 0.135

====

- Conditions Used: in n-butyl acetate, 280.15 K
Reported Metric: solubility (mole fraction)
Provide a numeric answer; units are not to be included.

Enquiry: Requested read-out: solubility (mole fraction). Entry: O=C(O)CCC(=O)C(=O)O
Return: 0.0284

====

- Conditions Used: in ethyl acetate, 286.15 K
Reported Metric: solubility (mole fraction)
Please reply with the number alone, leaving off any unit.

Enquiry: I am curious: what solubility (mole fraction) value has been reported for O=C(O)CCC(=O)C(=O)O ?
Return: 0.0455

====

- Conditions Used: in ethyl acetate, 278.15 K
Reported Metric: solubility (mole fraction)

Enquiry: Consider the compound shown here: O=C(O)CCC(=O)C(=O)O What is its recorded solubility (mole fraction)?
Return: 0.0358

====

- Conditions Used: in water, 278.15 K
Reported Metric: solubility (mole fraction)
Please respond with just the number, no unit label.

Enquiry: Suppose we examine the molecule O=C(O)CCC(=O)C(=O)O ; what solubility (mole fraction) value has been reported?
Return: 0.11

====

- Conditions Used: in ethyl acetate, 282.15 K
Reported Metric: solubility (mole fraction)
No unit in the answer, please; the number alone is enough.

Enquiry: So what's the measured solubility (mole fraction) for this one? O=C(O)CCC(=O)C(=O)O
Return: 0.0392

====

- Conditions Used: in ethyl acetate, 280.15 K
Reported Metric: solubility (mole fraction)
Please reply with the number alone, leaving off any unit.

Enquiry: Reported solubility (mole fraction), compound O=C(O)CCC(=O)C(=O)O : ____
Return: 0.0374

====

- Conditions Used: in water, 288.15 K
Reported Metric: solubility (mole fraction)
Please reply with the value in numeric form only.

Enquiry: Using the record for O=C(O)CCC(=O)C(=O)O , report its solubility (mole fraction).
Return: 0.146

====

- Conditions Used: in n-butyl acetate, 284.15 K
Reported Metric: solubility (mole fraction)
Simply state the number, no unit and no words.

Enquiry: Can you share its solubility (mole fraction)? I mean this molecule: O=C(O)CCC(=O)C(=O)O
Return: 0.0337

====

- Conditions Used: in n-butyl acetate, 286.15 K
Reported Metric: solubility (mole fraction)
# answer = number (no unit)

Enquiry: Please report the recorded solubility (mole fraction) for O=C(O)CCC(=O)C(=O)O .
Return: 0.0363

====

- Conditions Used: in ethyl acetate, 293.15 K
Reported Metric: solubility (mole fraction)
Please give the numeric answer without any surrounding text.

Enquiry: What value of measured solubility (mole fraction) is listed for O=C(O)CCC(=O)C(=O)O ?
Return: 0.0603

====

- Conditions Used: in water, 293.15 K
Reported Metric: solubility (mole fraction)

Enquiry: Any idea what solubility (mole fraction) was measured for O=C(O)CCC(=O)C(=O)O ?
Return: 0.168
